method-notes: Confirmation screen for delayed death inhibitors of the malarial parasite plastid, 48 hour incubation; also: nearly all actives have a fitted effect of over 65% in size
measurement-setup: P. falciparum-infected erythrocytes, luciferase growth; series mostly up to 28.7 µM
The campaign covered roughly 2,300 compounds. About 1,200 (52%) were called active. Roughly 34% stayed inconclusive and do not appear here. Calls follow the shape of the dose curve; as a rule, active = well fitted inhibition curve with a large enough effect; inconclusive = small, poorly fitted or top-dose-only effect, or effect the other way; inactive = no such curve, though single readings can be large or run the other way. So high a share suggests a set chosen from earlier hits. Some of the results follow.
Outcome codes: active, inactive

molecule	label
O=C(c1ccc(Br)cc1)C(CN1CCOCC1)c1ccccc1 (stereo unspecified)	active
CCc1ccc(/C=N/n2c(C)cc(C)c(C#N)c2=O)cc1	active
CCCC(=O)N1CCN(c2ccc(NC(=O)c3ccc([N+](=O)[O-])o3)cc2)CC1	active
CCn1c(Cc2ccccc2)nnc1SCC(=O)Nc1nc(C)cs1	active
O=C(c1ccc(Cl)cc1)C(CN1CCCC1)c1ccccc1 (stereo unspecified)	active
CCn1c(=O)cc(C(=O)OC)sc1=Nc1ccc(F)c(F)c1	inactive

----------
method-notes: Confirmation screen for delayed death inhibitors of the malarial parasite plastid, 48 hour incubation; also: nearly all actives have a fitted effect of over 65% in size
measurement-setup: P. falciparum-infected erythrocytes, luciferase growth; series mostly up to 28.7 µM
From the text: The goal of this screen is to discover new antimalarial compounds that act by inhibiting the development of the apicoplast in the malarial parasite Plasmodium falciparum. The biochemical processes that make this organelle essential for erythrocytic stage parasites are not well understood. […] Growth inhibition is detected by a decrease in luciferase activity. […]
Out of some 2,300 compounds screened, about 1,200 (52%) were called active. Not shown: some 34% with an inconclusive outcome. Calls follow the shape of the dose curve; as a rule, active = well fitted inhibition curve with a large enough effect; inconclusive = small, poorly fitted or top-dose-only effect, or effect the other way; inactive = no such curve, though single readings can be large or run the other way. The set was probably picked from earlier hits. This is one part of the list.
Outcome codes: True for active, False for inactive

compound	label
Cc1ccc(-c2nnc(SCC(=O)N/N=C/c3cccs3)n2-c2ccc(C)cc2)cc1	True
Cc1ccc(C)c(C(=O)CN2C3=NCCCN3c3ccccc32)c1	True
CC(=O)N1CCc2cc(S(=O)(=O)NCCC(=O)N3CCN(c4ccccn4)CC3)ccc21	True
CCOC(=O)c1cnc2c(C)c(Cl)ccc2c1NCCCN1CCOCC1	True
CCCCCNc1nc2sc3c(c2c(=O)n1-c1cccc(Cl)c1)CCN(C)C3	True
Cc1cccc2c1NC(=O)/C2=C\C(=O)c1cccs1	False
COc1cccc(CN(C)CC2CCCN(CCc3ccc(Cl)cc3)C2)c1OC (centres undefined)	True
c1ccc(SCc2cn(C[C@H]3CC[C@@H]([C@@H]4CC[C@H](Cn5cc(CSc6ccccc6)nn5)O4)O3)nn2)cc1	True
CO[C@@H]1[C@@H](OC2OC(C)C(OC3CC(C)(O)C(OC(=O)CC(C)C)C(C)O3)C(N(C)C)C2O)[C@@H](CC=O)C[C@@H](C)C(=O)/C=C\C2O[C@H]2C[C@@H](C)OC(=O)C[C@H]1OC(C)=O (some centres undefined)	True

----------
method-notes: Confirmation screen for delayed death inhibitors of the malarial parasite plastid, 48 hour incubation; also: nearly all actives have a fitted effect of over 65% in size
measurement-setup: P. falciparum-infected erythrocytes, luciferase growth; series mostly up to 28.7 µM
Among all 2,300 compounds or so, about 1,200 (52%) were called active. Not shown: some 34% with an inconclusive outcome. Calls follow the shape of the dose curve; as a rule, active = well fitted inhibition curve with a large enough effect; inconclusive = small, poorly fitted or top-dose-only effect, or effect the other way; inactive = no such curve, though single readings can be large or run the other way. So high a share suggests a set chosen from earlier hits. The list shows a part of the results.
Outcome codes: TRUE (active), FALSE (inactive)

structure-smiles-string	label
S=C(Nc1ccccc1Cl)N(Cc1ccccc1)Cc1cccnc1	TRUE
Cc1cc(C)nc(SCc2nnc(SCC(=O)Nc3nc(-c4ccccc4)cs3)n2C)n1	TRUE
NNC(=O)CSc1nc(-c2ccccc2)cn1-c1ccccc1	FALSE
Cc1ccc(/C=C/c2ccc(N(C)C)cc2)[n+](C)c1	TRUE
COc1cc(/C=C2\COC/C(=C\c3cc(OC)c(OC)c(OC)c3)C2=O)cc(OC)c1OC	TRUE
O=C(CSc1nc(-c2ccccc2)cs1)Nc1cccc([N+](=O)[O-])c1	FALSE

----------
method-notes: Confirmation screen for delayed death inhibitors of the malarial parasite plastid, 48 hour incubation; also: nearly all actives have a fitted effect of over 65% in size
measurement-setup: P. falciparum-infected erythrocytes, luciferase growth; series mostly up to 28.7 µM
Source text: The goal of this screen is to discover new antimalarial compounds that act by inhibiting the development of the apicoplast in the malarial parasite Plasmodium falciparum. The biochemical processes that make this organelle essential for erythrocytic stage parasites are not well understood. […] Growth inhibition is detected by a decrease in luciferase activity. […]
The whole screen tested about 2,300 compounds, of which about 1,200 (52%) were called active. About 34% were inconclusive and are not listed. Calls follow the shape of the dose curve; as a rule, active = well fitted inhibition curve with a large enough effect; inconclusive = small, poorly fitted or top-dose-only effect, or effect the other way; inactive = no such curve, though single readings can be large or run the other way. The set was probably picked from earlier hits. The list shows a part of the results.
Outcome codes: T for active, F for inactive

compound	label
O=C1c2ccccc2C(=Nc2ccccc2)C1c1cccc(Br)c1 (stereo unspecified)	T
CC1CCN(CCNC(=O)C2CCN(S(=O)(=O)c3cccc4nsnc34)CC2)CC1	T
O=C(Nc1ccncc1)c1ccc(Cl)c(S(=O)(=O)N2CCCC2)c1	T
Cc1ccccc1NC1=NCC(c2ccc([N+](=O)[O-])cc2)S1 (stereo unspecified)	T
CCC1CN(C(=O)N2CCC(C(=O)NCc3cccc(OC)c3OC)CC2)c2cc(C)ccc2O1 (stereo unspecified)	T
Cc1ccc(C(=O)NC2CCCCC2)cc1S(=O)(=O)N1CCCC1	T
O=C(/C=C/c1ccncc1)c1ccc(NC(=O)c2ccccc2F)cc1	T
Cc1cc2nsnc2c(S(=O)(=O)N2CCN(C)CC2)c1C	F
COc1ccc(Cl)cc1NC(=O)C(C)NC(c1ccccc1)c1ccccc1 (stereo unspecified)	T
Cc1ccc2c(c1)c1c3n2CCN(C(=O)CCl)C3CCC1 (stereo unspecified)	T
COc1cccc(COC(=O)C2CC(=O)N(Cc3ccco3)C2)c1OC (stereo unspecified)	F

----------
method-notes: Confirmation screen for delayed death inhibitors of the malarial parasite plastid, 48 hour incubation; also: nearly all actives have a fitted effect of over 65% in size
measurement-setup: P. falciparum-infected erythrocytes, luciferase growth; series mostly up to 28.7 µM
Among all 2,300 compounds or so, about 1,200 (52%) were called active. About 34% were inconclusive and are not listed. The call rests on the fitted dose curve; in most records, active means well fitted inhibition curve with a large enough effect; inconclusive means small, poorly fitted or top-dose-only effect, or effect the other way; inactive means no such curve, though single readings can be large or run the other way. So high a share suggests a set chosen from earlier hits. This is one part of the list. Square brackets hold non-standard residues; d marks the D form. Peptide text beside a SMILES is read from it. * marks the point of attachment. ξ: configuration not given here. ξF = NC(Cc1ccccc1)C(=O)O; Cbz = O=C(OCc1ccccc1)*
Outcome codes: 1 (active), 0 (inactive)

compound	label
CCCNC(=O)C(Cc1ccc(F)cc1)NC(=O)c1ccccc1 (configuration not stated)	1
CCOc1ccccc1NC(=O)/C(C#N)=C/c1cccnc1	1
COc1ccccc1-c1cc(C(=O)N/N=C/c2ccc(C)o2)c2ccccc2n1	0
COC(=O)C1=C(C)N(CC2CC2)C(=NCc2cc(OC)c(OC)c(OC)c2)N[C@H]1c1ccccc1	1
COc1ccc(S(=O)(=O)N/N=C(/C)c2ccco2)cc1	0
Cc1cc(C)c(/C=C(\C#N)C(N)=S)c(C)c1	0
O=C(CNC(=O)c1ccco1)OCC(=O)c1ccccc1	0
CCCCN1/C(=C/c2cccc[n+]2C)Sc2cc(NC(C)=O)ccc21	1
O=C(c1ccccc1)N1CCCC(c2ccc(Cl)cc2)=N1	1
Cc1ccc(OCC(=O)Nn2cnnc2)c(Br)c1	0
CC(=O)Nc1sc(C)c(C)c1C(=O)OCC(=O)N(CC(C)C)C1CCS(=O)(=O)C1 (configuration not stated)	1
CC(C)NC(=S)N/N=C/c1sc(N2CCCCC2)nc1-c1cccs1	1
CCOc1ccccc1NC(=S)N1CCN(c2cccc(OC)c2)CC1	0
O=C1/C(=C/c2ccccc2F)SC(=S)N1CC(=O)N1CCCCC1c1cccnc1 (configuration not stated)	1
Cc1ccc(C)c(-c2nnc(OCC(=O)Nc3cc(C)on3)c3ccccc23)c1	1
Cc1cc(C)n(Cc2ccc(C(=O)N/N=C/c3ccc(-c4ccc([N+](=O)[O-])cc4)o3)o2)n1	1
COc1ccccc1-c1cc(C(=O)N/N=C/c2ccc(C)s2)c2ccccc2n1	1
O=C(CCN1C(=O)S/C(=C\c2ccccc2)C1=O)NC1CCS(=O)(=O)C1 (configuration not stated)	0
CCOC(=O)c1c(S(=O)(=O)NCC(=O)Nc2cccc(C)c2C)c(C)n(C)c1C	0
CCOC(=O)CNC(=O)C(Cc1ccccc1)NC(=O)OCc1ccccc1 (configuration not stated) (Cbz-[ξF]-Gly-OEt)	0
CC1CCCN(Cc2c(O)ccc3c(=O)c(-c4nc5ccccc5s4)c(N)oc23)C1 (configuration not stated)	1
COc1ccc(NC(=O)N2CCCc3cc(C)ccc32)c(OC)c1	1

----------
method-notes: Confirmation screen for delayed death inhibitors of the malarial parasite plastid, 48 hour incubation; also: nearly all actives have a fitted effect of over 65% in size
measurement-setup: P. falciparum-infected erythrocytes, luciferase growth; series mostly up to 28.7 µM
Text: The goal of this screen is to discover new antimalarial compounds that act by inhibiting the development of the apicoplast in the malarial parasite Plasmodium falciparum. The biochemical processes that make this organelle essential for erythrocytic stage parasites are not well understood. […] Growth inhibition is detected by a decrease in luciferase activity. […]
Out of some 2,300 compounds screened, about 1,200 (52%) were called active. Another 34% or so got no clear call; they are omitted. Calls follow the shape of the dose curve; as a rule, active = well fitted inhibition curve with a large enough effect; inconclusive = small, poorly fitted or top-dose-only effect, or effect the other way; inactive = no such curve, though single readings can be large or run the other way. So high a share suggests a set chosen from earlier hits. Some of the results follow.
Outcome codes: active, inactive

molecule	label
CCCN1CCN(C(=O)C2CCN(S(=O)(=O)c3ccc4c(c3)NC(=O)C(C)S4)CC2)CC1 (stereo not drawn)	active
CO[C@H](C(=O)[C@@H](O)[C@@H](C)O)C1Cc2cc3cc(O[C@H]4C[C@@H](O[C@H]5C[C@@H](O)[C@H](O)[C@@H](C)O5)[C@@H](O)[C@@H](C)O4)c(C)c(O)c3c(O)c2C(=O)[C@H]1O[C@H]1C[C@@H](O[C@H]2C[C@@H](O[C@H]3C[C@](C)(O)[C@H](O)[C@@H](C)O3)[C@H](O)[C@@H](C)O2)[C@H](O)[C@@H](C)O1 (stereo partly drawn)	active
Cc1nn(C)c(C)c1C(C)NC(=O)c1ccc(OC2CCN(Cc3ccccn3)CC2)cc1 (stereo not drawn)	inactive
O=C(Cc1cccc2ccccc12)Nc1ccccc1C(=O)O	inactive
CN(CCc1ccccn1)C(=O)c1ccc(OC2CCN(CCc3ccccc3)CC2)cc1	active
COc1cc2c(cc1OC)CN(CC(=O)Nc1ccc(S(=O)(=O)N3CCCC3)cc1)CC2	active
COc1ccc(-c2nnc3ccc(SCC(=O)Nc4nc5ccc(C)cc5s4)nn23)cc1OC	active
CCCCNC(=O)c1ccc(CS(=O)(=O)c2cccc(C(F)(F)F)c2)o1	inactive
COc1ccc(OCCOc2ccc(S(=O)(=O)N3CCCC3)cc2C(N)=O)cc1	active
CN1CCN(c2ccccc2NC(=O)c2cccc(OCc3ccccc3)c2)CC1	active
O=C(COc1ccc(Br)cc1)Nc1cc(S(=O)(=O)N2CCCCC2)ccc1N1CCCCC1	active
CCCc1nnc(NC(=O)c2nc(S(=O)(=O)Cc3cccc(C)c3)ncc2Cl)s1	inactive
COc1ccc2[nH]c3c(c2c1)CCN1C(=O)N([C@@H](C)C(=O)NCCc2ccc(F)cc2)C(=O)[C@]31C	active
COc1ccc(CN2CCC(Oc3ccc(C(=O)NCc4ccccn4)cc3)CC2)c(F)c1	active
CCN(CC(=O)Nc1ccc(S(=O)(=O)N2CCOCC2)cc1)Cc1ccccc1	active
CN(CCCNC(=O)c1ccc(CS(=O)c2ccc(Br)cc2)o1)Cc1ccccc1 (stereo not drawn)	active
CN(CCNC(=O)c1ccc(CS(=O)(=O)c2ccc(Br)cc2)o1)CCc1ccccc1	active
CC(=O)Nc1ccc(OCc2cccc3ccccc23)cc1	active

Data provenance: PubChem BioAssay AID504850
